Target: D(2) dopamine receptor (Rattus norvegicus, UniProt P61169)
Sequence (P61169 whole entry): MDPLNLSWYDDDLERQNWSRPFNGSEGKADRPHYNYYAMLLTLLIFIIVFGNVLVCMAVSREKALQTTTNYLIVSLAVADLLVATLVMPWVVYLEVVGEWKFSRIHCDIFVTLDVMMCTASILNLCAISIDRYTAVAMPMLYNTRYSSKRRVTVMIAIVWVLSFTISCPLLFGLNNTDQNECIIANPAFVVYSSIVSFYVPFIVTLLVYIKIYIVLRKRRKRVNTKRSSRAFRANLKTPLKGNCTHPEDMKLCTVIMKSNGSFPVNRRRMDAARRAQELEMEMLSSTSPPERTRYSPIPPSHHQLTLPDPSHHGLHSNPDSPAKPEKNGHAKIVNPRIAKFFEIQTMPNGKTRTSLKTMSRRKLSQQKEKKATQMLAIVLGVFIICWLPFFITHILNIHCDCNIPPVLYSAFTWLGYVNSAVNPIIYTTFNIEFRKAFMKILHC
pKi: −log10 of the molar value. Where a name gives a salt, the structure may show the parent alone.

# COMPOUND, pKi
measured = [
    ("COc1ccc(C(CN(C)C)C2(O)CCCCC2)cc1 (stereo not drawn)", "< 5.00"),
    ("CN(C)CCC=C1c2ccccc2CCc2ccccc21", 6.07),
    ("CNCC[C@@H](Oc1ccc(C(F)(F)F)cc1)c1ccccc1", "< 5.00"),
    ("CN(C)CCCC1(c2ccc(F)cc2)OCc2cc(C#N)ccc21 (stereo not drawn) [CITALOPRAM HYDROBROMIDE]", "< 5.00"),
    ("Fc1ccc([C@@H]2CCNC[C@H]2COc2ccc3c(c2)OCO3)cc1", "< 5.00"),
    ("CC(NC(C)(C)C)C(=O)c1cccc(Cl)c1 (stereo not drawn) [BUPROPION HYDROCHLORIDE]", "< 5.00"),
    ("COCCCC/C(=N\\OCCN)c1ccc(C(F)(F)F)cc1", "< 5.00"),
    ("CN(CCCN1c2ccccc2CCc2ccccc21)CC(=O)c1ccc(Cl)cc1", 5.17),
]
